Target: Platelet-derived growth factor receptor beta (Homo sapiens, UniProt P09619)
Sequence (P09619 whole entry): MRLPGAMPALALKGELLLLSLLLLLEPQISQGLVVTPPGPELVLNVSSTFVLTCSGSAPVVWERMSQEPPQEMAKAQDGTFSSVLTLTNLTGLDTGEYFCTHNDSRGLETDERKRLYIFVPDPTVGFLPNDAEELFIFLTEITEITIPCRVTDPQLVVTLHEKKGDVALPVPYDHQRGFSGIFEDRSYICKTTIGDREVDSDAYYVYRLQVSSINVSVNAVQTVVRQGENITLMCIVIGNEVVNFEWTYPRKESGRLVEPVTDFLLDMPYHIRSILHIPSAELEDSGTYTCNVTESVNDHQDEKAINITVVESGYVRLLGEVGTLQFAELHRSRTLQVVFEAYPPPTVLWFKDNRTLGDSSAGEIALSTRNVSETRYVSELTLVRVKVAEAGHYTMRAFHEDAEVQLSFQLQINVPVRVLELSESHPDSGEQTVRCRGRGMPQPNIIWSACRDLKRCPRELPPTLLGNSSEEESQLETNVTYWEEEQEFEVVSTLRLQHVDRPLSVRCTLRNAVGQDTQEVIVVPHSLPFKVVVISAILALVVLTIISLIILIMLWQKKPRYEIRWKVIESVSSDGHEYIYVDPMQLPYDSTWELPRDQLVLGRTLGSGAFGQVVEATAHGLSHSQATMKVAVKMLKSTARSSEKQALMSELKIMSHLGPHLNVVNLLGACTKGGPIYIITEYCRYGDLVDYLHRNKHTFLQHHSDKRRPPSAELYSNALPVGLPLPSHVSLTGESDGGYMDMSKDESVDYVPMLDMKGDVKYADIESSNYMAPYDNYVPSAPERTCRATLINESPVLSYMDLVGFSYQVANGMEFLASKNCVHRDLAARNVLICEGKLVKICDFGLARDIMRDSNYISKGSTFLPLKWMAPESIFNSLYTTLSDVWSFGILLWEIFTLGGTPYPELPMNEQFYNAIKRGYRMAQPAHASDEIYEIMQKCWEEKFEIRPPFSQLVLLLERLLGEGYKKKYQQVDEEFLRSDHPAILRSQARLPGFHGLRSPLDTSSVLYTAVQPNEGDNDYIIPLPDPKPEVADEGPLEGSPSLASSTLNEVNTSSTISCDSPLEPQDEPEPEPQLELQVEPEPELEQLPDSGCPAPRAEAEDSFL
metric name: Kd

Kd for Platelet-derived growth factor receptor beta (Homo sapiens, UniProt P09619) with input Cc1ccc(-c2ncn(-c3ccc(Nc4nccc(-c5cccc(N6CCOCC6)c5)n4)cc3)n2)cn1 equals < 1 µM

* * *

Target: Mast/stem cell growth factor receptor Kit (Homo sapiens, UniProt P10721, V559D)
Sequence (P10721 26-976 V559D limits assumed): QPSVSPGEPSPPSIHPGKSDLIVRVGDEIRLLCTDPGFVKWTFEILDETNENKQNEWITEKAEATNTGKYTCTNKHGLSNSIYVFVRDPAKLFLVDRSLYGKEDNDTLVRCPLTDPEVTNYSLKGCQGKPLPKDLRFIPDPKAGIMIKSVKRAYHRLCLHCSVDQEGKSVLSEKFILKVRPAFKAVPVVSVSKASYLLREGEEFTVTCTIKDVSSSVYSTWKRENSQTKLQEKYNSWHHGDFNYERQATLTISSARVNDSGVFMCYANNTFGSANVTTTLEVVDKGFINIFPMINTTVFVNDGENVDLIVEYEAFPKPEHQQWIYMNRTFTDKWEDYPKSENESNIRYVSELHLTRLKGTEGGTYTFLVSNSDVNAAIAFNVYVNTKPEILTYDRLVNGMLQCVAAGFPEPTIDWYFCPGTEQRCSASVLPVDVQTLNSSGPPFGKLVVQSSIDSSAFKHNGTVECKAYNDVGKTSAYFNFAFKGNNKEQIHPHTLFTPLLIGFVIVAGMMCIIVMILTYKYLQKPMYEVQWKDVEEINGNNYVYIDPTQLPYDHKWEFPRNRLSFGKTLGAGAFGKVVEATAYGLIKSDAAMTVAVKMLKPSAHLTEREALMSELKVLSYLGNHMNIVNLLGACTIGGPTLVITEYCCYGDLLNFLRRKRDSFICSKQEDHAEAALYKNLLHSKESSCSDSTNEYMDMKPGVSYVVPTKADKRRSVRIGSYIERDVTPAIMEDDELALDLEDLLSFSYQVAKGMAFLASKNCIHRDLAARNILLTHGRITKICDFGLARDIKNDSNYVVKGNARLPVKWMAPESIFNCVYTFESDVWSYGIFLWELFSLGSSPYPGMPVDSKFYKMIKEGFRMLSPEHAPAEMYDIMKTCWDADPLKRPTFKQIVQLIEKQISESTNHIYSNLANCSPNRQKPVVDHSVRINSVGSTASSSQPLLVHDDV
Test: Inhibition of KIT V559D (unknown origin)
pKd: −log10 of the molar value.
metric name: pKd

pKd for Mast/stem cell growth factor receptor Kit (Homo sapiens, UniProt P10721, V559D) with input Cc1ccc(-c2ncn(-c3ccc(Nc4nccc(-c5cccc(N6CCOCC6)c5)n4)cc3)n2)cn1 equals > 6.00

* * *

Target: UniProtKB P05181
Sequence (P05181 whole entry): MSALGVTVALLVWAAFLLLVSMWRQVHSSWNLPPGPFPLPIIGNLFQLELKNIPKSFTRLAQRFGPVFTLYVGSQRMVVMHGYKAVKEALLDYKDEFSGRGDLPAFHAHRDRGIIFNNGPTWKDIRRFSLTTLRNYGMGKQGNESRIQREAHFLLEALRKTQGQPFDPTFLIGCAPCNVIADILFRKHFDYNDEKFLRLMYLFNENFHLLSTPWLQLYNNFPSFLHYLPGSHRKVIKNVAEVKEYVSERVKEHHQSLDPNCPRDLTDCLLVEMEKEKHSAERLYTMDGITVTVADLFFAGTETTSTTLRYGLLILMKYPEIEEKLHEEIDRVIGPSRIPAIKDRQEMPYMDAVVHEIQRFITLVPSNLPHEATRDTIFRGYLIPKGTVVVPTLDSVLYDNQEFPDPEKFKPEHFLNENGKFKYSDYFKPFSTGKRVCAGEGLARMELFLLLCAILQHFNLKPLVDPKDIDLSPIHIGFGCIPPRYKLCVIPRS
pIC50: −log10 of the molar value.
metric name: pIC50

The measured pIC50 associated with Cc1ccc(-c2ncn(-c3ccc(Nc4nccc(-c5cccc(N6CCOCC6)c5)n4)cc3)n2)cn1 reads < 4.30

* * *

Molecular target: Mitogen-activated protein kinase 9 (Homo sapiens, UniProt P45984)
Sequence (P45984 whole entry): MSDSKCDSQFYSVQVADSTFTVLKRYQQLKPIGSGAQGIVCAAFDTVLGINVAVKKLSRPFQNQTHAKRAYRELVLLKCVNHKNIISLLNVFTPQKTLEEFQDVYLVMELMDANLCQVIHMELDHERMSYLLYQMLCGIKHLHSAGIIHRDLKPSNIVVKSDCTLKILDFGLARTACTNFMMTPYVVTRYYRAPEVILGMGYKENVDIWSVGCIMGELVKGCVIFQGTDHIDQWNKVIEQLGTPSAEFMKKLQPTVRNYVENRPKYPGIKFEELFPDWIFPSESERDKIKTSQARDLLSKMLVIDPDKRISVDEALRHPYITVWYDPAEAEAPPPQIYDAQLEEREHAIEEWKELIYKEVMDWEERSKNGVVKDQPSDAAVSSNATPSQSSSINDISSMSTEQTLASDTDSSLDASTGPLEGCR
Experiment: Inhibition of JNK2 (unknown origin)
metric name: Kd (µM)
Answers are plain numbers, in µM.

>>> quantitative_result("O=C(O/N=C1/c2ccccc2-c2nc3ccccc3nc21)c1ccco1")
0.29

The measured Kd associated with COc1ccc(C(=O)O/N=C2/c3ccccc3-c3nc4ccccc4nc32)cc1OC reads 0.28

* * *

Biological target: UniProt P10635
Sequence (P10635 whole entry): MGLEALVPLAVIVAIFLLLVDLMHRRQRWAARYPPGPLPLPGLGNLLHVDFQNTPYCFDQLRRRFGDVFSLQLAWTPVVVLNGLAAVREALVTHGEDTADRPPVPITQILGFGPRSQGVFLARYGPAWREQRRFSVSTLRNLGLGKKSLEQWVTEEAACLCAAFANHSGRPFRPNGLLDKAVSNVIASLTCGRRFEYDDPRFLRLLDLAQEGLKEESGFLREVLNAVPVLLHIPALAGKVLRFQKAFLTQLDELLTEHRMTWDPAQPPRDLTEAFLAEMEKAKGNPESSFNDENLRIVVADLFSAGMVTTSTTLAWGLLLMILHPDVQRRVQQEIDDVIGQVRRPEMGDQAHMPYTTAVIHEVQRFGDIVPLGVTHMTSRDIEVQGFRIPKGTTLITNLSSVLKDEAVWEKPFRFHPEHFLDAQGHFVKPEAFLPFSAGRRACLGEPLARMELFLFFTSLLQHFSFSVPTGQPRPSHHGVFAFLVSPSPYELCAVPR
metric name: IC50

The measured IC50 associated with Cc1ccc(-c2ncn(-c3ccc(Nc4nccc(-c5cccc(N6CCOCC6)c5)n4)cc3)n2)cn1 reads > 50 µM

* * *

Target: Cytochrome P450 2C9 (Homo sapiens, UniProt P11712)
Sequence (P11712 whole entry): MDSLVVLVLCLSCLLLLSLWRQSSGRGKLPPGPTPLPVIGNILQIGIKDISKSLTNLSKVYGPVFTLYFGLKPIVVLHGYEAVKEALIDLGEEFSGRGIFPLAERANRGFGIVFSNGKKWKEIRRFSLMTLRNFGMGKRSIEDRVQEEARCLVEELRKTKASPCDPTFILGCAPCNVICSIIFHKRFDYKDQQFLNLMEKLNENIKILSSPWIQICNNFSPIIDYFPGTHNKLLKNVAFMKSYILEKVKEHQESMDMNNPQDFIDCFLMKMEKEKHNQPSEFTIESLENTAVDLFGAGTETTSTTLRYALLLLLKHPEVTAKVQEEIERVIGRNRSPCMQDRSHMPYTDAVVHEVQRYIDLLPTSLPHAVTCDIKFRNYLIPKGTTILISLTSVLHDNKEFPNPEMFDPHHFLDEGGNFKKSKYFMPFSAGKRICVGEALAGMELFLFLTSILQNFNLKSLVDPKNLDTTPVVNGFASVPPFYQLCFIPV
metric name: IC50

The measured IC50 associated with Cc1ccc(-c2ncn(-c3ccc(Nc4nccc(-c5cccc(N6CCOCC6)c5)n4)cc3)n2)cn1 reads > 50 µM

* * *

Provide the reported IC50 of each item.
Biological target: Mitogen-activated protein kinase 8 (Homo sapiens)
Assay: Inhibition of JNK1 (unknown origin) by time-resolved fluorescence assay
Give bare numbers, in nM.

Examples from the recorded data:
>>> quantitative_result("Cn1cc(-c2c[nH]c3ncc([C@H]4CC[C@H](N5CCOCC5)CC4)cc23)cn1")
74
>>> quantitative_result("O=C(NCCN1CCN(C2CCC2)CC1)c1cccc(-n2ncc3cc(Nc4ccccc4Cl)ccc32)c1")
970
>>> quantitative_result("NC(=O)c1ccccc1Nc1nc(Nc2ccc(N3CCCC3=O)cc2)ncc1Cl")
0.24

Please state IC50 for every compound in the list that follows.
1. NC(=O)c1ccccc1Nc1nc(Nc2ccc(N3CCOCC3)cc2)ncc1Cl
2. Cn1cc(-c2c[nH]c3ncc([C@H]4CC[C@H](N5CCCOCC5)CC4)cc23)cn1

output:
1
166

* * *

Experiment: Oral bioavailability in rat
Type: ADME, organism-based
Settings: in vivo
metric name: bioavailability (%)
Answers are plain numbers, in %.

The measured bioavailability associated with COc1cc(N2CCOCC2)ccc1Nc1ncc(Cl)c(Nc2ccccc2C(N)=O)n1 reads 30

* * *

Observed Kd for Mast/stem cell growth factor receptor Kit (Homo sapiens, UniProt P10721), reported per entry below.

Examples from the recorded data:
>>> result("Cc1ccc(-c2ncn(-c3ccc(Nc4nccc(-c5cccc(N6CCOCC6)c5)n4)cc3)n2)cn1")
"> 20 µM"
>>> result("COc1cc(NC(=O)c2cccc(-n3cc(NC(=O)Nc4cccc(C)c4)cn3)c2)cc(OC)c1OC")
"> 20 µM"

In the following, a different compound is considered.
The measured Kd associated with O=C(NCCN1CCOCC1)c1ccnc(-n2ncc3cc(Nc4ccccc4Cl)ccc32)c1 reads < 1 µM

* * *

Target: Mitogen-activated protein kinase 10 (Homo sapiens)
Assay: Inhibition of JNK3 (unknown origin) by time-resolved fluorescence assay
metric name: pIC50
One number for each entry, as −log10 of the molar value.

Examples from the recorded data:
>>> quantitative_result("CN(C)c1ccc(-c2cnc3[nH]cc(-c4cn[nH]c4)c3c2)cc1")
7.49
>>> quantitative_result("O=C(NCCN1CCN(C2CCC2)CC1)c1cccc(-n2ncc3cc(Nc4ccccc4Cl)ccc32)c1")
7.40
>>> quantitative_result("Cn1cc(-c2c[nH]c3ncc([C@H]4CC[C@H](N5CCOCC5)CC4)cc23)cn1")
7.07
>>> quantitative_result("COc1cc(N2CCOCC2)ccc1Nc1ncc(Cl)c(Nc2ccccc2C(N)=O)n1")
9.10
>>> quantitative_result("NC(=O)c1ccccc1Nc1nc(Nc2ccc(N3CCOCC3)cc2)ncc1Cl")
9.52

In the following, a different compound is considered.
The measured pIC50 associated with Cc1ccc(-c2ncn(-c3ccc(Nc4nccc(-c5cccc(N6CCOCC6)c5)n4)cc3)n2)cn1 reads 6.80

* * *

Target: Cytochrome P450 2B6 (Homo sapiens)
Sequence (P20813 whole entry): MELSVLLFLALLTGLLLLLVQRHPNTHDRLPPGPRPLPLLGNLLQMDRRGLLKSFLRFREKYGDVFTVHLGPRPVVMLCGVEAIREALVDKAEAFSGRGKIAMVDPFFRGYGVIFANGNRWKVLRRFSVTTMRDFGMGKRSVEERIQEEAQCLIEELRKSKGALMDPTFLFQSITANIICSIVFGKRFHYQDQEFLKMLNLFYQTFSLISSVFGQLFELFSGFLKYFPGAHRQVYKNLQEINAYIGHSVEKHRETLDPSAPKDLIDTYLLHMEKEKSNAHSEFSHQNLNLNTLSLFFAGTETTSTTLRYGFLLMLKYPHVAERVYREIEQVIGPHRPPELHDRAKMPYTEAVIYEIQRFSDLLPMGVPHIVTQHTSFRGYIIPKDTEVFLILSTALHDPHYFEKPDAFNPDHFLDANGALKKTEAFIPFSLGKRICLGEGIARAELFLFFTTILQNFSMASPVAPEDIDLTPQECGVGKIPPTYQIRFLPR
metric name: IC50

The measured IC50 associated with Cc1ccc(-c2ncn(-c3ccc(Nc4nccc(-c5cccc(N6CCOCC6)c5)n4)cc3)n2)cn1 reads > 50 µM

* * *

Target: Mitogen-activated protein kinase 8 (Homo sapiens, UniProt P45983)
Sequence (P45983 whole entry): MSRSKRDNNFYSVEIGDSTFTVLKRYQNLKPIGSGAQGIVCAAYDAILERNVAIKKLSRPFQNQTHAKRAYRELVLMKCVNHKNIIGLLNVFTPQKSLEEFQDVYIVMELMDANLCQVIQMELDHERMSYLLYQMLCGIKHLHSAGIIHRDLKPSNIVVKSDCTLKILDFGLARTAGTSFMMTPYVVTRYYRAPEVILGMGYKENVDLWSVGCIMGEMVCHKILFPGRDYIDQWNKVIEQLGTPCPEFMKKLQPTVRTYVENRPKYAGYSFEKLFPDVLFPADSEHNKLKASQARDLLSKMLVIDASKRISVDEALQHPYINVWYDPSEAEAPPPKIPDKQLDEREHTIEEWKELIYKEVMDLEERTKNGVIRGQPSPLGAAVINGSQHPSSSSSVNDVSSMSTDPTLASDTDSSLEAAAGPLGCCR
Experiment: Inhibition of JNK1 (unknown origin) after 1 hr incubation
Provide the reported pIC50 of each item.
One number for each entry, as −log10 of the molar value.

>>> quantitative_result("CN(C)C/C=C/C(=O)Nc1cccc(C(=O)Nc2ccc(Nc3nccc(-c4c(-c5ccccc5)nn5ccccc45)n3)cc2)c1")
8.89

In the following, a different compound is considered.
The measured pIC50 associated with CN(C)C/C=C/C(=O)Nc1cccc(C(=O)Nc2ccc(Nc3nccc(-c4cccnc4)n3)cc2)c1 reads 8.82

* * *

Biological target: MAP kinase p38 (Homo sapiens, UniProt O15264+Q15759+Q16539+P53778)
Assay: Inhibition of p38 (unknown origin)
Format: protein assay
metric name: IC50

>>> result("COc1cc(NC(=O)c2cccc(-n3cc(NC(=O)Nc4cccc(C)c4)cn3)c2)cc(OC)c1OC")
"> 20 µM"
>>> result("CS(=O)(=O)Nc1ccc(-c2ccnc(Nc3ccc(-n4ccnn4)cc3)n2)cc1")
"> 20 µM"
>>> result("Fc1cc(-c2cc[nH]/c(=N/c3ccc(-n4cnc(N5CCOCC5)n4)cc3)n2)cc(N2CCOCC2)c1")
"> 20 µM"
>>> result("COc1cc(NC(=O)c2cccc(-n3cc(NC(=O)Nc4ccccc4)cn3)c2)cc(OC)c1OC")
"3.7 µM"

In the following, a different compound is considered.
The measured IC50 associated with Cc1ccc(-c2ncn(-c3ccc(Nc4nccc(-c5cccc(N6CCOCC6)c5)n4)cc3)n2)cn1 reads > 20 µM

* * *

Target: Mitogen-activated protein kinase 10 (Homo sapiens, UniProt P53779)
Sequence (P53779 whole entry): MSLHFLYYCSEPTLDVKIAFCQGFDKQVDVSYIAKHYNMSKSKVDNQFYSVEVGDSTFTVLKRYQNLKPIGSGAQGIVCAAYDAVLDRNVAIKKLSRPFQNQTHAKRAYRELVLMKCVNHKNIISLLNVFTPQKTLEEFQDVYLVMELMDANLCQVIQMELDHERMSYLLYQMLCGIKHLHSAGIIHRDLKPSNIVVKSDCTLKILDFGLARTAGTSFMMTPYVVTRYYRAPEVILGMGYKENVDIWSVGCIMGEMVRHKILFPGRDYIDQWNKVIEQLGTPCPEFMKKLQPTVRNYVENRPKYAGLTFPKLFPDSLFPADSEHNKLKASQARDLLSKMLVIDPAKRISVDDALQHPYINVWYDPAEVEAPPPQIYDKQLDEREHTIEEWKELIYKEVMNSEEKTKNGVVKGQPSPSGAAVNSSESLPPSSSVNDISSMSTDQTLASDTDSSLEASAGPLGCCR
Assay: Inhibition of JNK3-mediated c-jun phosphorylation in human HeLa cells after 1 hr incubation
Format: cell-based
metric name: IC50 (nM)
Answers are plain numbers, in nM.

The measured IC50 associated with CN(C)C/C=C/C(=O)Nc1cccc(C(=O)Nc2ccc(Nc3nccc(-c4c(-c5ccccc5)nn5ccccc45)n3)cc2)c1 reads 48

* * *

Molecular target: Cytochrome P450 1A2 (Homo sapiens)
Sequence (P05177 whole entry): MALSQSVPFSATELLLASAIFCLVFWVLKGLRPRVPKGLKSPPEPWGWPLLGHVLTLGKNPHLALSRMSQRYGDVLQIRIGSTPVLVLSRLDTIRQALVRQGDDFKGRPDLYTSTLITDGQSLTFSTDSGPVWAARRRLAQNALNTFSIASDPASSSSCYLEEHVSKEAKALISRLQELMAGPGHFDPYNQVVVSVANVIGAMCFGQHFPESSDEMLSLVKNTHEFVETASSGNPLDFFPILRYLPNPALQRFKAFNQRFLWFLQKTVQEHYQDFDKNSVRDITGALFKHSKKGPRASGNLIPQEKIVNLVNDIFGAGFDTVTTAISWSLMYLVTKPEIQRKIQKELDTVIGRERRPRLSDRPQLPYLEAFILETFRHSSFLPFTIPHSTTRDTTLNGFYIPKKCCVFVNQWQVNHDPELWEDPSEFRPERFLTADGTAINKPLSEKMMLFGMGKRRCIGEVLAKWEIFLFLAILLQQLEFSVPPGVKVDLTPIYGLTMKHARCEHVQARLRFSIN
pIC50: −log10 of the molar value.
metric name: pIC50

The measured pIC50 associated with Cc1ccc(-c2ncn(-c3ccc(Nc4nccc(-c5cccc(N6CCOCC6)c5)n4)cc3)n2)cn1 reads < 4.30
